- assay-text: Drug reactivity against N-benzoyl-cysteine in pH 7.4 PBS buffer assessed as half life at 250 uM measured up to 72 hrs by HPLC-MS analysis
- Type: ADME
- condition-summary: PBS buffer with N-benzoyl-cysteine (thiol reactivity)
observable: half-life at 250 µM

Here is how some molecules turned out for half-life at 250 µM.
{"smiles-representation": "O=C(CBr)c1cc(C(F)(F)F)cc(C(F)(F)F)c1", "observed": "< 1.02 min"}
{"smiles-representation": "FC(F)(F)c1cc(S)cc(C(F)(F)F)c1", "observed": "> 3000 min"}
{"smiles-representation": "C=CC(=O)Oc1cc(C(F)(F)F)cc(C(F)(F)F)c1", "observed": "< 1.02 min"}
{"smiles-representation": "FC(F)(F)c1cc(N=C=S)cc(C(F)(F)F)c1", "observed": "1.02 min"}

Ask: Tell me the measured half-life at 250 µM of Fc1cc(C(F)(F)F)cc(C(F)(F)F)c1 , please.
Result: > 3000 min

---

Measured half-life at 250 µM by item
- assay-text: Drug reactivity against N-bezoyl-cysteamine in pH 7.4 PBS buffer assessed as half life at 250 uM measured up to 72 hrs by HPLC analysis
- Format: ADME
- condition-summary: PBS buffer with N-benzoyl-cysteamine (thiol reactivity)

{"smiles-representation": "FC(F)(F)c1cc(N=C=S)cc(C(F)(F)F)c1", "half-life at 250 µM": "< 1.02 min"}
{"smiles-representation": "O=C(CBr)c1cc(C(F)(F)F)cc(C(F)(F)F)c1", "half-life at 250 µM": "< 1.02 min"}
{"smiles-representation": "FC(F)(F)c1cc(S)cc(C(F)(F)F)c1", "half-life at 250 µM": "> 3000 min"}

Ask: Tell me the measured half-life at 250 µM of Fc1cc(C(F)(F)F)cc(C(F)(F)F)c1 , please.
Result: > 3000 min

Ask: Tell me the measured half-life at 250 µM of C=CC(=O)Oc1cc(C(F)(F)F)cc(C(F)(F)F)c1 , please.
Result: < 1.02 min

---

- assay-text: Drug reactivity against N-benzoyl-glutathione in pH 7.4 PBS buffer assessed as half life at 250 uM measured up to 72 hrs by HPLC-MS/MS analysis
- Assay type: ADME
- condition-summary: PBS buffer with N-benzoyl-glutathione (thiol reactivity)
observable: half-life at 250 µM

Here is how some compounds turned out for half-life at 250 µM.
{"smiles-representation": "C=CC(=O)Oc1cc(C(F)(F)F)cc(C(F)(F)F)c1", "half-life at 250 µM": "< 0.017 h"}
{"smiles-representation": "O=C(CBr)c1cc(C(F)(F)F)cc(C(F)(F)F)c1", "half-life at 250 µM": "< 0.017 h"}
{"smiles-representation": "Fc1cc(C(F)(F)F)cc(C(F)(F)F)c1", "half-life at 250 µM": "> 50 h"}
{"smiles-representation": "FC(F)(F)c1cc(S)cc(C(F)(F)F)c1", "half-life at 250 µM": "11.2 h"}

Consider the additional compound presented here.
Ask: Tell me the measured half-life at 250 µM of FC(F)(F)c1cc(N=C=S)cc(C(F)(F)F)c1 , please.
Result: < 0.017 h

---

- assay-text: Drug reactivity against N-acetyl-cysteine in pH 7.4 PBS buffer assessed as half life at 250 uM measured up to 72 hrs by HPLC-MS analysis
- Format: ADME
- condition-summary: PBS buffer with N-acetyl-cysteine (thiol reactivity)
observable: half-life at 250 µM

Here is how some compounds turned out for half-life at 250 µM.
{"smiles-representation": "C=CC(=O)Oc1cc(C(F)(F)F)cc(C(F)(F)F)c1", "half-life at 250 µM": "< 0.017 h"}
{"smiles-representation": "FC(F)(F)c1cc(N=C=S)cc(C(F)(F)F)c1", "half-life at 250 µM": "< 0.017 h"}
{"smiles-representation": "FC(F)(F)c1cc(S)cc(C(F)(F)F)c1", "half-life at 250 µM": "33 h"}

Ask: Tell me the measured half-life at 250 µM of Fc1cc(C(F)(F)F)cc(C(F)(F)F)c1 , please.
Result: > 50 h

Ask: Tell me the measured half-life at 250 µM of O=C(CBr)c1cc(C(F)(F)F)cc(C(F)(F)F)c1 , please.
Result: < 0.017 h
